tested on: Recombinant Human Poly(ADP-Ribose) Polymerase (PARP) (Homo sapiens)
test protocol: PARP1 inhibition assay ([3H]-NAD+, biotinylated histone H1, FlashPlate/SPA)
assay conditions: from inhibition curves at various substrate concentrations
Measured pKi, listed per entry.
Quick note: pKi means taking -log10 of the concentration in moles per liter.

compound	pKi
CCCN1CCC(c2nc3c(C(N)=O)cccc3[nH]2)C1 (centres unmarked)	8.09
NC(=O)c1cccc2[nH]c(C3CCN(C4CCOCC4)C3)nc12 (centres unmarked)	8.09
CC1(c2nc3c(C(N)=O)cccc3[nH]2)CCN(CC2CC2)C1 (centres unmarked)	8.30

Memo: "NC(=O)c1cccc2[nH]c(C3CN(C4CCOCC4)C3)nc12" , reported pKi: 7.34

----------
tested on: Recombinant Human Poly(ADP-Ribose) Polymerase (PARP) (Homo sapiens, UniProt P09874)
Sequence (P09874 whole entry): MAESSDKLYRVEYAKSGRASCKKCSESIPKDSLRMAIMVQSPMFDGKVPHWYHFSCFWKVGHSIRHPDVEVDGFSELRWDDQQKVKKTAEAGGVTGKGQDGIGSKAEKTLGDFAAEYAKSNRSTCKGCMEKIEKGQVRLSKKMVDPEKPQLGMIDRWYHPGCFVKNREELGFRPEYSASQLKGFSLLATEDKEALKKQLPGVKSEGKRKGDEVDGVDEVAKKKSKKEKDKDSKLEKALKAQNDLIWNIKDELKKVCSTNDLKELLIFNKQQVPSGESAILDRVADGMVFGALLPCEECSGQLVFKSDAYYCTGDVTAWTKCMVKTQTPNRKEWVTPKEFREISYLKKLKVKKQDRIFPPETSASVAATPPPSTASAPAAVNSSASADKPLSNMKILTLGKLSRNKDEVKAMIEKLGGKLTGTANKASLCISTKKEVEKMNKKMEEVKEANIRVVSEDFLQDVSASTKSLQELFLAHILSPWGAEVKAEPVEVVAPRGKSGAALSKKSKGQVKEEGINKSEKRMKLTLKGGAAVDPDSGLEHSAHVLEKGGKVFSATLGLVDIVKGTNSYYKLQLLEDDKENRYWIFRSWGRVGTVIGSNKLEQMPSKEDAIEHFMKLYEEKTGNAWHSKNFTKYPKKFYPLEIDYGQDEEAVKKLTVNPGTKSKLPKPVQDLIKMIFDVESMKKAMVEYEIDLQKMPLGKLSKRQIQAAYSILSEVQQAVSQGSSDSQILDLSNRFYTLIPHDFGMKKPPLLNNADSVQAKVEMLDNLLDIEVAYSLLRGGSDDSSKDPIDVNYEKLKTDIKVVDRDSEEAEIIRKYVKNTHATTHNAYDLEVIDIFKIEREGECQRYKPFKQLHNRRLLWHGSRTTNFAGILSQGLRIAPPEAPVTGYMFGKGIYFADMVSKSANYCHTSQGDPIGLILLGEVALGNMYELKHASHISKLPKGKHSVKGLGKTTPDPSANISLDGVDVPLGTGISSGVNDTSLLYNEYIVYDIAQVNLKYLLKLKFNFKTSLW
test protocol: PARP1 inhibition assay ([3H]-NAD+, biotinylated histone H1, FlashPlate/SPA)
assay conditions: from inhibition curves at various substrate concentrations
Ki by entry:
Give the number; nM is assumed, so skip it.

Examples with their reported Ki follow.
compound	Ki, nM
NC(=O)c1cccc2[nH]c(C3CCN(Cc4ccncc4)C3)nc12 (centres unmarked)	14.2
CC(C)N1CCC1c1nc2c(C(N)=O)cccc2[nH]1 (centres unmarked)	118
CCCN1CC(c2nc3c(C(N)=O)cccc3[nH]2)C1	14.1
CN(C)S(=O)(=O)N1CCC(c2nc3c(C(N)=O)cccc3[nH]2)CC1	31.1

Measured Ki of CC1(c2nc3c(C(N)=O)cccc3[nH]2)CCN(C2CCOCC2)C1 (centres unmarked) : 7.2

Value of measured Ki for the entry "CC1(c2nc3c(C(N)=O)cccc3[nH]2)CN(C2CCC2)C1" : 6.1

For record "NC(=O)c1cccc2[nH]c(C3CCN(C4CCC4)CC3)nc12" the listed Ki is 6.3

----------
tested on: Recombinant Human Poly(ADP-Ribose) Polymerase (PARP) (Homo sapiens)
test protocol: PARP1 inhibition assay ([3H]-NAD+, biotinylated histone H1, FlashPlate/SPA)
assay conditions: from inhibition curves at various substrate concentrations
pKi: −log10 of the molar value.
# pKi >= 8 gives Criterion met, anything below gives Criterion not met

compound	tested on	class name
CCCN1CCC[C@@H]1c1nc2c(C(N)=O)cccc2[nH]1	Recombinant Human Poly(ADP-Ribose) Polymerase (PARP) (Homo sapiens)	Criterion not met
NC(=O)c1cccc2[nH]c(C3CCCN(C4CCCCC4)CC3)nc12 (centres unmarked)	Recombinant Human Poly(ADP-Ribose) Polymerase (PARP) (Homo sapiens)	Criterion met
NC(=O)c1cccc2[nH]c(C3CCN(CC4CC4)C3)nc12 (centres unmarked)	Recombinant Human Poly(ADP-Ribose) Polymerase (PARP) (Homo sapiens)	Criterion met

Could you verify whether the entry CC1(c2nc3c(C(N)=O)cccc3[nH]2)CCN1C1CCCC1 (centres unmarked) shows pKi of no less than 8?
Criterion not met

----------
tested on: Recombinant Human Poly(ADP-Ribose) Polymerase (PARP) (Homo sapiens, UniProt P09874)
test protocol: PARP1 inhibition assay ([3H]-NAD+, biotinylated histone H1, FlashPlate/SPA)
assay conditions: from inhibition curves at various substrate concentrations
property: pKi
Recall that pKi is obtained by taking minus log10 of the concentration measured in molar.

Before answering, review these 2 worked examples.
compound	property	numeric readout
CC1(c2nc3c(C(N)=O)cccc3[nH]2)CN(CC2CC2)C1	pKi	8.10
CC1(c2nc3c(C(N)=O)cccc3[nH]2)CCN(Cc2ccncc2)C1 (stereo not drawn)	pKi	8.05

Field pKi (entry NC(=O)c1cccc2[nH]c(C3CCN(C4CCC4)C3)nc12 (stereo not drawn) ) reads 8.17

----------
tested on: Recombinant Human Poly(ADP-Ribose) Polymerase (PARP) (Homo sapiens, UniProt P09874)
test protocol: PARP1 inhibition assay ([3H]-NAD+, biotinylated histone H1, FlashPlate/SPA)
assay conditions: from inhibition curves at various substrate concentrations
Reported Ki is given for each of the following compounds.
Expressed in nM, but write only the number.

compound	readout unit	Ki
NC(=O)c1cccc2[nH]c(C3CCN3C3CCC3)nc12 (stereo not shown)	nM	80
CCCN1CCC(C)(c2nc3c(C(N)=O)cccc3[nH]2)C1 (stereo not shown)	nM	4.2
CC1(c2nc3c(C(N)=O)cccc3[nH]2)CCN(C2CCC2)C1 (stereo not shown)	nM	4

For "NC(=O)c1cccc2[nH]c([C@H]3CCCN3C3CCC3)nc12" the compound record lists Ki as 142

Lab note: "CCCN1CCC(c2nc3cccc(C(N)=O)c3[nH]2)CC1" gave Ki of 8.6

// "CC(C)CN1CC(C)(c2nc3c(C(N)=O)cccc3[nH]2)C1" : Ki value = 5.6

get_value(item= CC(C)CN1CCC(C)(c2nc3c(C(N)=O)cccc3[nH]2)C1 (stereo not shown) , readout=Ki) returns 3.8

----------
tested on: Recombinant Human Poly(ADP-Ribose) Polymerase (PARP) (Homo sapiens, UniProt P09874)
test protocol: PARP1 inhibition assay ([3H]-NAD+, biotinylated histone H1, FlashPlate/SPA)
assay conditions: from inhibition curves at various substrate concentrations
property: Ki (nM)
Only the number, expressed in nM, is required.

Known Ki results, listed for orientation:
compound	tested on	Ki (nM)
CC(CCc1ccccc1)N1CCC(c2nc3c(C(N)=O)cccc3[nH]2)C1 (stereo not shown)	Recombinant Human Poly(ADP-Ribose) Polymerase (PARP) (Homo sapiens, UniProt P09874)	13.2
CCCN1CC(C)(c2nc3c(C(N)=O)cccc3[nH]2)C1	Recombinant Human Poly(ADP-Ribose) Polymerase (PARP) (Homo sapiens, UniProt P09874)	6.9
CC1(c2nc3c(C(N)=O)cccc3[nH]2)CN(C2CCOCC2)C1	Recombinant Human Poly(ADP-Ribose) Polymerase (PARP) (Homo sapiens, UniProt P09874)	12.7

Documented Ki of CC1(c2nc3c(C(N)=O)cccc3[nH]2)CCN(C2CCCC2)C1 (stereo not shown) : 3.4

----------
tested on: Recombinant Human Poly(ADP-Ribose) Polymerase (PARP) (Homo sapiens, UniProt P09874)
Construct: purchased Trevigen, Gaithersburg, Md; host or cells: E. coli
test protocol: PARP1 inhibition assay ([3H]-NAD+, biotinylated histone H1, FlashPlate/SPA)
Assay type: biochemical
assay conditions: from inhibition curves at various substrate concentrations
property: pKi
Keep in mind that pKi stands for -log10 of concentration in molar terms.

compound	pKi
CC1(c2nc3c(C(N)=O)cccc3[nH]2)CCCN(C2CCCCC2)CC1 (stereo not shown)	7.92
CC(C)N1CCC[C@@H]1c1nc2cccc(C(N)=O)c2[nH]1	7.89
CC(C)CN1CCC(c2nc3c(C(N)=O)cccc3[nH]2)C1 (stereo not shown)	8.13

Attention now shifts to the item below.
// returns pKi for "CN(C)S(=O)(=O)N1CC(c2nc3c(C(N)=O)cccc3[nH]2)C1" with Recombinant Human Poly(ADP-Ribose) Polymerase (PARP) (Homo sapiens, UniProt P09874); value = 7.80
